A collection of molecules and their measured max response
# ASSAY TARGET: Peroxisome proliferator-activated receptor alpha (Homo sapiens)
# PROCEDURE SUMMARY: qHTS assay for small molecule agonists of the peroxisome proliferator-activated receptor alpha (PPARalpha) signaling pathway (AID 651778); note: % of control where 0% means no effect
# ASSAY SETUP: PathHunter PPARalpha complementation, chemiluminescence, 6 h; hits give high values
# output: bare number, implied unit %

// below: answered molecules
CCCCCCCCCCCCCCN = -1.81
CCCCCCCCCCCCCCC = -1.61
Cl[Si](Cl)(Cl)c1ccccc1 = -2.31
O=C(O)c1ccc2c(c1)C(=O)OC2=O = -0.399
Nc1ccc(Nc2ccccc2)cc1 = -0.422
C=C(C)C(=O)OCCC[Si](Cl)(Cl)Cl = 0.0328
CCSC(=O)N(CC(C)C)CC(C)C = -0.436
CCCCCCCCCCCCCCCCCC#N = 3.6

Looking up S=C(S)NCCNC(=S)S , I see its max response listed as 0.0068

Looking up CC(=O)CC(=O)Nc1ccc(C)cc1C , I see its max response listed as -1.32

====

# PROCEDURE SUMMARY: qHTS for Inhibitors of Ubiquitin-specific Protease USP2a Using CHOP2 as the Reporter: Cytotox Assay (AID 652170);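 note: HCT116 human colon cancer cells at 600 per well; plate controls were DMSO-treated cells for no effect and wells without cells for full effect; nearly all actives have a fitted effect of over 70% in size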
# ASSAY SETUP: HCT116 viability, CellTiter-Glo luminescence, 72 h; series mostly up to 46.1 µM
Results filed as inconclusive are left out. Active and inactive are the calls of the source. The call rests on the fitted dose curve; in most records, active means well fitted cell-killing curve with a large enough effect; inconclusive means small, poorly fitted or top-dose-only effect, or effect the other way; inactive means flat fitted curve, though single readings scatter.
Pick one and only one: YES = active, NO = inactive

How was Cc1ccc(-c2cc(C(=O)Nc3ccc4ccccc4c3)c3ccccc3n2)cc1C classified in this test? NO

====

# ASSAY TARGET: Cytochrome P450 3A4 (Homo sapiens) (UniProt P08684)
# Sequence (P08684 whole entry, looked up): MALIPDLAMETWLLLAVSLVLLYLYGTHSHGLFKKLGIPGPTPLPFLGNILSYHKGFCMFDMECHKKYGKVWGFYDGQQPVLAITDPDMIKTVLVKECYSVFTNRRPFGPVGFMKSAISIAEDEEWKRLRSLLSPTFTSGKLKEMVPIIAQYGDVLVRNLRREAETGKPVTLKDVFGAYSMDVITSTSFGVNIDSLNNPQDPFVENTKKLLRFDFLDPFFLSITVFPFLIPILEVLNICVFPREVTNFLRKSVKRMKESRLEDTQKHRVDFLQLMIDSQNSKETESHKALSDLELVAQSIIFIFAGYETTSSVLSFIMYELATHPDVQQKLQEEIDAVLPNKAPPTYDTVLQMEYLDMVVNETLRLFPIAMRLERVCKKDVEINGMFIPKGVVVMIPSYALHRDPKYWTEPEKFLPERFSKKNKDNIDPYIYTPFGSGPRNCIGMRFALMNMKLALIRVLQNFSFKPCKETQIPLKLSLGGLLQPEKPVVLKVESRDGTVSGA
# PROCEDURE SUMMARY: qHTS Assay for Activators of Cytochrome P450 3A4 (AID 885); note: nearly all actives have a fitted effect of over 65% in size
# ASSAY SETUP: recombinant CYP3A4, Luciferin-PPXE luminescence, 60 min; series mostly up to 57.1 µM
Calls of active or inactive are those of the source. Calls follow the shape of the dose curve; as a rule, active = well fitted activation curve with a large enough effect; inconclusive = small, poorly fitted or top-dose-only effect; inactive = no such curve, though single readings can be large or run the other way.
PARAMETER: activity change, positive = activation

// below: answered compounds
COC(=O)N1[C@H](C)C=C[C@]1(Cc1ccccc1)C(=O)NCc1ccc(N(C)C)cc1 = inactive
C=CC[C@@H]1C=C[C@H](Oc2ccc(C)cc2)[C@H](COC(=O)NCc2cccc3ccccc23)O1 = -96.8% [at 11.4 µM] (inactive)
COC(=O)c1ccc(C(/C=C/[C@@H](C)C(=O)NCc2ccccc2)NC(=O)OCc2ccccc2)cc1 (stereo partly drawn) = inactive
C=CCOC(=O)C(C(C)=O)C(NC(=O)OC)c1ccc(Cl)cc1 (stereo not drawn) = -107% [at 11.4 µM] (inactive)
CCCCCCN(C(=O)CCCCCN1C(=O)NC(c2ccc(-c3ccccc3)cc2)C(C(=O)OCc2ccccc2)=C1C)C(C(=O)NCCCC)c1ccccc1 (stereo not drawn) = inactive
CCCC[C@@H]1C[C@H]1[C@@H](NP(=O)(c1ccccc1)c1ccccc1)c1ccccc1OC = inactive
CC(C)(C)[Si](OCC[C@@H]1C[C@@]1(C)[C@@H](NP(=O)(c1ccccc1)c1ccccc1)c1ccccc1)(c1ccccc1)c1ccccc1 = inactive

Now look at this one.
Looking up CCC1=C(OC(=O)N(CC)CC)N2C(=O)OC(=NCCOC)[C@]2(C)[C@H]2C1=CC[C@H]1C(=O)N(CC)C(=O)[C@H]12 , I see its activity change, positive = activation listed as inactive
